The reported numbers originate from patent US20210220408A1.

# Test System: aryl hydrocarbon receptor (AHR) (Homo sapiens, UniProt P35869)
# Test Description: DRE-Luciferase reporter high-throughput screen (AHR antagonist, VAF347-activated)
pIC50: −log10 of the molar value.
Property: pIC50

* COc1ccccc1CNc1[nH]nc2nc(C)cc(C)c12 [123A] | 5.70 to 6.00
* Cc1cc(N(C)C)nc(N2CCN(C(=O)Nc3cccc(F)c3)CC2)n1 [79A] | 5.70 to 6.00
* Cc1ccc(N2CC[C@@H]3[C@@H]2CCN3c2ncc(F)cn2)nn1 [181A] | 5.70 to 6.00
* Cc1nn(C(=O)Nc2ccccc2)c(C)c1Oc1ccccc1 [22A] | 5.70 to 6.00
* Clc1ccc(-c2ncc(-c3cc[nH]n3)s2)cc1 | 6.00 to 6.30
* O=C(Nc1ncccc1Br)c1cc(-n2cccn2)ccn1 [17A] | 5.70 to 6.00
* O=[N+]([O-])c1cccc(-c2csc(-c3cccc(-n4cnc(Cl)c4Cl)c3)n2)c1 | 6.30 to 6.70
* FC(F)(F)c1ccnc(N/N=C/c2ccc(Cl)cc2Cl)n1 | 6.00 to 6.30
* COC(OC)c1ccnc(-c2ccc(I)c(F)c2)n1 [84A] | 5.70 to 6.00
* COc1ccc(-c2n[nH]c3c2C(=O)CC(c2ccccc2)C3)cc1 (stereo not drawn) | > 6.70
* CC(=O)N(CCc1ccccc1F)c1nc2ccccc2s1 [108B] | 5.70 to 6.00
* COc1ccc(CC(=O)Nc2ccc(-c3csc(C)n3)cc2)cc1 [143A] | < 5.70
* CCc1nnc(-c2ccc(NC(=O)c3ccccc3OC)cc2)o1 | 5.70 to 6.00
* O=C(NCCc1ccccc1)c1cnc(-c2noc3ccccc23)s1 [60A] | < 5.70
* Cc1ccc(-c2nnc(-c3ccncc3)[nH]2)c([N+](=O)[O-])c1 [109A] | 5.70 to 6.00
* FC(F)(F)c1nc(N2CCN(c3ncccn3)CC2)c2ccccc2n1 | 6.30 to 6.70
* Cc1ccc(S(=O)(=O)N=C(N)Nc2nc(C)c3cc(C)ccc3n2)cc1 [164A] | 5.70 to 6.00
* N#Cc1ccc(C(=O)Nc2cc(C(F)(F)F)ccc2Cl)c(F)c1 | 6.30 to 6.70
* CC(=O)N1CCN(c2nc3cc(C(F)(F)F)ccc3s2)CC1 | 6.00 to 6.30
* COc1ccc(C2=C(C#N)c3nc4ccccc4n3C(=O)C2C#N)cc1 (stereo not drawn) [121B] | 6.00 to 6.30
* Cc1cc(-c2nnc3sc(-c4ccc(F)cc4)nn23)[nH]n1 | 6.00 to 6.30

---

# Test System: aryl hydrocarbon receptor (AHR) (Homo sapiens, UniProt P35869)
# Test Description: DRE-Luciferase reporter high-throughput screen (AHR antagonist, VAF347-activated)
pIC50: −log10 of the molar value.
Parameter pIC50: see the listing below.
Property: pIC50

• Cc1nn2c(C)c(C(=O)OC(C)C)nnc2c1-c1ccccc1 = 6.00 to 6.30
• c1ccc(-c2nnc(-c3csc(-c4cccnc4)n3)o2)cc1 = 6.30 to 6.70
• Cc1cc(C)c2cc(C#N)c(Oc3cccnc3)nc2c1 [158A] = 5.70 to 6.00
• Cc1ccc2cc(NC(=O)c3cccc4c3OC(C)(C)C4)ccc2n1 [50A] = < 5.70
• COc1ccc(C(=O)Nc2cccc(F)c2)cc1C = 5.70 to 6.00
• c1ccc(-c2ccc(N3CCOCC3)s2)cc1 [100B] = < 5.70

---

# Test System: aryl hydrocarbon receptor (AHR) (Homo sapiens, UniProt P35869)
# Sequence (P35869 11-848): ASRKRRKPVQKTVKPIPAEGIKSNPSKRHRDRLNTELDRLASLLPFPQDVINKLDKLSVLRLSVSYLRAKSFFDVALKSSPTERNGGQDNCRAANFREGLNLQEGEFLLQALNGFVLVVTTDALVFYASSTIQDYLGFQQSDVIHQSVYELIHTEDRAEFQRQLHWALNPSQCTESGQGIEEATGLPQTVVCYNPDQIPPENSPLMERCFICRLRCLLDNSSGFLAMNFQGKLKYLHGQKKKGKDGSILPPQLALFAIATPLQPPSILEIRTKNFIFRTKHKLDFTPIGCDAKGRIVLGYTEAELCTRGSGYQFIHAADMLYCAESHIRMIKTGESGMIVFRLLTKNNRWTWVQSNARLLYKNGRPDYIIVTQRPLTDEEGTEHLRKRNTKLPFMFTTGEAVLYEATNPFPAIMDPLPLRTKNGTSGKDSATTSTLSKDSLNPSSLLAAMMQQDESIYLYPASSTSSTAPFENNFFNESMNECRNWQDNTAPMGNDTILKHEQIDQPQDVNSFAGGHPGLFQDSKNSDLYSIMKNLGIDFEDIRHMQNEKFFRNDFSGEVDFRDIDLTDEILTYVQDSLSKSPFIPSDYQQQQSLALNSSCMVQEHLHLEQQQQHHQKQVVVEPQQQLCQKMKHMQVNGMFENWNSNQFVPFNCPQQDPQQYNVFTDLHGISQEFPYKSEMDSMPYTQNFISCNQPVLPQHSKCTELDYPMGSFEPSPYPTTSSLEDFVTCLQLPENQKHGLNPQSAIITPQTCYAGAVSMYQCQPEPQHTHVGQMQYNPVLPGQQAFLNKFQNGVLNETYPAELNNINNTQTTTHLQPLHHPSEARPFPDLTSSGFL
# Test Description: DRE-Luciferase reporter high-throughput screen (AHR antagonist, VAF347-activated)
Listed here: items and their measured IC50.
Property: IC50

- CCCc1cc(C(=O)N2CCC(C3CCCCC3)C2)[nH]n1 (stereo not drawn) [106A]: 1 to 2 µM
- O=C(Nc1cc2ccccc2s1)c1ccccc1 [23B]: 1 to 2 µM
- Cc1ccc(-c2cc(C(=O)NCc3cccnc3)c3cc(Br)ccc3n2)cc1 [155A]: 1 to 2 µM
- CN1CCN(c2nc(-c3cc(F)ccc3F)cs2)CC1 [56A]: > 2 µM
- Cc1ccc(OCc2cc(=O)n3ccsc3n2)cc1C [113B]: 1 to 2 µM
- CCOC(=O)N1CCN(c2nc(CC)nc3sc(C)cc23)CC1: 0.2 to 0.5 µM

---

# Test System: aryl hydrocarbon receptor (AHR) (Homo sapiens, UniProt P35869)
# Sequence (P35869 11-848): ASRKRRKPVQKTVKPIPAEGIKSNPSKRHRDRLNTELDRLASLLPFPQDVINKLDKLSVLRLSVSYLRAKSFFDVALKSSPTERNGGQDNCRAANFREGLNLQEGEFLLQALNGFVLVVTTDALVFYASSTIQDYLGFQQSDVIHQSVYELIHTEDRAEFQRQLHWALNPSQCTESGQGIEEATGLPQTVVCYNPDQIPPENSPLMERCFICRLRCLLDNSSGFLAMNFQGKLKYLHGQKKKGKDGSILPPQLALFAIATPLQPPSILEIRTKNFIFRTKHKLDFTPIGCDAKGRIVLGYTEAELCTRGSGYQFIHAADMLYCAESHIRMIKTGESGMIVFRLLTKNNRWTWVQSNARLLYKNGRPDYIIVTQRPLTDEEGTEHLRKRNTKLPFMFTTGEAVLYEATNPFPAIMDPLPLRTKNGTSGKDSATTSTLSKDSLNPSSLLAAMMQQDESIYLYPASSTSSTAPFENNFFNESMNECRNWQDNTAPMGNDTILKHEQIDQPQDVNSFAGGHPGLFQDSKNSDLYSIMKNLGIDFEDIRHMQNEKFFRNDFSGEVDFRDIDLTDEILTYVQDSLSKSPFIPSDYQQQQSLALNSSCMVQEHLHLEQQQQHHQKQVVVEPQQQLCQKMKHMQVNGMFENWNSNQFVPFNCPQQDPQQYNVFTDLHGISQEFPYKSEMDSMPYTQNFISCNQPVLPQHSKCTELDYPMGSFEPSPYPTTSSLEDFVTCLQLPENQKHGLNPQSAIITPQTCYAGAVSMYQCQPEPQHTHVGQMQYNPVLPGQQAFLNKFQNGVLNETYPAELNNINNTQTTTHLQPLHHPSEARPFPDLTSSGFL
# Test Description: DRE-Luciferase reporter high-throughput screen (AHR antagonist, VAF347-activated)
IC50 reference
Property: IC50

* c1ccc(-c2nc(-c3ccc4c(c3)CCO4)no2)cc1 [85B] | 500 to 1000 nM
* O=c1[nH]c2ccc(-c3csc(-c4ccccn4)n3)cc2[nH]1 [compound 58] | 500 to 1000 nM
* Cc1ccc(C(=O)Nc2ccc(-c3nccs3)cc2)cc1 [compound 8] | 500 to 1000 nM
* Cn1c(SCc2ccccc2Cl)nnc1-c1csc(-c2cccnc2)n1 [53A] | 1000 to 2000 nM
* COc1ccc(N2CC(c3ccc(F)cc3)=CC2=O)cc1 [152A] | 1000 to 2000 nM
* CCOc1ccc(NC(=O)c2c(C)coc2C)cc1 [11B] | 500 to 1000 nM
* Cc1[nH]c2c(C(=O)Nc3cccc(CN4CCOC4=O)c3)cccc2c1C [40A] | 1000 to 2000 nM
* CS(=O)(=O)c1csc(C(=O)Nc2cccc(Cl)c2)c1Cl [18B] | > 2000 nM
* N#Cc1ccc(OCc2ncc(C(F)(F)F)cc2Cl)cc1 [93A] | 1000 to 2000 nM
* CCCCCc1ccc2c(C#N)c(OC)ccc2c1 [117B] | 1000 to 2000 nM
* Cc1cccc(NC(=O)c2cc(-c3ccc(C)cc3O)n[nH]2)c1 [compound 20] | 500 to 1000 nM
* CC(=O)Nc1ccc(NC(=O)c2cccc3c2OCC3)cc1 [43A] | 1000 to 2000 nM
* Cn1c(Cl)cnc1-c1cc(=O)c2cc(Cl)ccc2o1 [53B] | 1000 to 2000 nM
* O=C1CSC(N2CCN(c3ccc(Cl)c(Cl)c3)CC2)=N1 [71A] | > 2000 nM
* C/C(=N\Nc1ncc(Br)cn1)c1cccc([N+](=O)[O-])c1 [compound 112] | 500 to 1000 nM
* Cc1ccc2cc(C(=O)N3CCN(S(=O)(=O)c4cccs4)CC3)[nH]c2c1 [compound 78] | 500 to 1000 nM
* CSc1ccccc1C(=O)Nc1ccc2[nH]c(-c3ccc(F)cc3)nc2c1 [compound 13] | 500 to 1000 nM
* Clc1ccc(/C=N/Nc2nc3cc(Cl)ccc3[nH]2)cc1 [83A] | > 2000 nM
* CCCc1c(C)nc(Nc2nc(C)c3cc(C)cc(C)c3n2)[nH]c1=O [163A] | 1000 to 2000 nM
* CCOC(=O)Nc1ccc(-n2ccc(C)n2)cc1 [57B] | 1000 to 2000 nM
* O=[N+]([O-])c1ccc(C2COC(c3ccc(Cl)cc3)O2)cc1 (stereo not drawn) [102B] | 1000 to 2000 nM
